Target: DR7 (DRB1*0701) (Homo sapiens, UniProt P01903+P01911, A100R/A102G/A103Q/D57E/D86V/E43K/F76Y/K127E/L162R/M171V/P40G/Q125H/Q99D/R33Q/R42Y/R54Q/S133A/S66F/T210M/V115G/Y107V/Y59L/Y89S)
Assay: biochemical
Type: binding
No end group written: not given here.
Consider the following sequences; for each one, report its IC50.

*Q* Item RREVYDFAFRDLCIV [Peptide 1543.25] has what recorded IC50?
*A* 0.073 µM

*Q* Item LHLLSNDMCARAYSE [Peptide 68.0140] has what recorded IC50?
*A* > 20 µM

*Q* Item NGWFYVEAVVEKKTG [Peptide 90.0029] has what recorded IC50?
*A* 0.307 µM

*Q* Item CQAIELQLALEALNK [Peptide 90.0014] has what recorded IC50?
*A* > 20 µM

*Q* Item QWAYDNDIVDDSEIA [Peptide 90.0036] has what recorded IC50?
*A* > 20 µM

*Q* Item TVTFVTEQQQQMFLG [Peptide 90.0210] has what recorded IC50?
*A* > 20 µM

*Q* Item GERLEVDTELSPRLQ [Peptide 90.0048] has what recorded IC50?
*A* > 20 µM

* * *

Consider the following sequences; for each one, report its pIC50.
Biological target: A31 (A*3101) (Homo sapiens, UniProt P04439, A270S/D185E/E176V/E277Q/F33T/G231S/G80R/H175R/I121M/I218V/I322F/K168Q/L300P/L318F/M331R/P217A/Q94H/R138Q/T323A/T345S/T97I/V358M)
Assay: biochemical
Format: binding
No end group written: not given here.
FYI, pIC50 means -log10 of a concentration in mol per litre.

*Q* Item AAEGVGAVSR [Peptide 9017.0188] has what recorded pIC50?
*A* 5.57

*Q* Item RQRKIDWLIK [Peptide 9017.0247] has what recorded pIC50?
*A* 7.02

*Q* Item KFYSKISEYR [Peptide 78.0081] has what recorded pIC50?
*A* 7.32

*Q* Item KSFFSRTWCK [Peptide 88.0170] has what recorded pIC50?
*A* 8.27

*Q* Item KLFLQGTPK [Peptide 88.0381] has what recorded pIC50?
*A* 7.29

*Q* Item LQHASTSTPK [Peptide 88.0224] has what recorded pIC50?
*A* 5.23

*Q* Item QVVPPINISK [Peptide 1589.23] has what recorded pIC50?
*A* 5.81

*Q* Item GVSIEWRKRR [Peptide 9017.0221] has what recorded pIC50?
*A* 6.65

*Q* Item HLFDYSWYK [Peptide 76.0165] has what recorded pIC50?
*A* 7.44

*Q* Item GTAKSVTCTR [Peptide 1556.31] has what recorded pIC50?
*A* 6.67

*Q* Item NSNAAAFLR [Peptide 88.0387] has what recorded pIC50?
*A* 6.80

* * *

Residues, ends and D or L forms follow the SMILES beside them.
MEASURED_PARAMETER: IC50 (nM)
Numeric answer only, unit nM assumed.

*Q* Lookup: IC50 / HLA-A3.2 (A*0301) (Homo sapiens) / CC(C)C[C@H](NC(=O)[C@H](Cc1c[nH]cn1)NC(=O)[C@H](CO)NC(=O)[C@H](CO)NC(=O)[C@H](Cc1c[nH]cn1)NC(=O)[C@H](C)NC(=O)[C@@H](N)CCCNC(=N)N)C(=O)N[C@@H](CCCCN)C(=O)O [Peptide 1556.70]
*A* 27

*Q* Lookup: IC50 / HLA-A3.2 (A*0301) (Homo sapiens) / CC[C@H](C)[C@H](NC(=O)[C@H](CS)NC(=O)[C@H](CCCNC(=N)N)NC(=O)[C@@H](NC(=O)[C@@H](N)CC(C)C)[C@@H](C)CC)C(=O)N[C@H](C(=O)N[C@@H](CS)C(=O)N[C@@H](CCC(N)=O)C(=O)N[C@@H](CCCCN)C(=O)O)[C@@H](C)CC [Peptide 88.0298] (H-LIRCIICQK-OH)
*A* 445

*Q* Lookup: IC50 / HLA-A3.2 (A*0301) (Homo sapiens) / CSCC[C@H](NC(=O)[C@@H](NC(=O)[C@H](C)N)[C@@H](C)O)C(=O)N[C@@H](CS)C(=O)N[C@@H](CCCCN)C(=O)N[C@@H](Cc1c[nH]cn1)C(=O)N[C@@H](Cc1ccc(O)cc1)C(=O)N[C@@H](CCCNC(=N)N)C(=O)N[C@@H](CCCNC(=N)N)C(=O)O [Peptide 88.0343]
*A* 221

*Q* Lookup: IC50 / HLA-A3.2 (A*0301) (Homo sapiens) / CSCC[C@H](NC(=O)[C@@H](N)CCCCN)C(=O)N[C@@H](Cc1ccccc1)C(=O)N[C@@H](CS)C(=O)N[C@@H](CCC(N)=O)C(=O)N[C@@H](CC(C)C)C(=O)N[C@@H](C)C(=O)N[C@@H](CCCCN)C(=O)O [Peptide 1556.52]
*A* 37

*Q* Lookup: IC50 / HLA-A3.2 (A*0301) (Homo sapiens) / CC[C@H](C)[C@H](N)C(=O)N[C@@H](CO)C(=O)N[C@@H](Cc1ccccc1)C(=O)N[C@@H](C)C(=O)NCC(=O)N[C@H](C(=O)N[C@H](C(=O)N[C@H](C(=O)N[C@@H](CCCCN)C(=O)O)[C@@H](C)O)C(C)C)[C@@H](C)CC [Peptide 1589.17]
*A* 33
